target: ER-α (Gen Bank Accession #M12674) (Homo sapiens); construct: made in house; host or cells: in vitro transcription/translation, TNT T7 Quick-Coupled reticulocyte lysate (Promega Cat.#L1170); experiment: Estrogen receptor binding, competition with [125I]-estradiol, ER-α; conditions: competition with 150 pM [125I]-estradiol; receptor-programmed reticulocyte lysate; overnight at 4° C.; Cheng-Prushoff from IC50; read-out: ER-α Ki
Sequence (P03372 whole entry): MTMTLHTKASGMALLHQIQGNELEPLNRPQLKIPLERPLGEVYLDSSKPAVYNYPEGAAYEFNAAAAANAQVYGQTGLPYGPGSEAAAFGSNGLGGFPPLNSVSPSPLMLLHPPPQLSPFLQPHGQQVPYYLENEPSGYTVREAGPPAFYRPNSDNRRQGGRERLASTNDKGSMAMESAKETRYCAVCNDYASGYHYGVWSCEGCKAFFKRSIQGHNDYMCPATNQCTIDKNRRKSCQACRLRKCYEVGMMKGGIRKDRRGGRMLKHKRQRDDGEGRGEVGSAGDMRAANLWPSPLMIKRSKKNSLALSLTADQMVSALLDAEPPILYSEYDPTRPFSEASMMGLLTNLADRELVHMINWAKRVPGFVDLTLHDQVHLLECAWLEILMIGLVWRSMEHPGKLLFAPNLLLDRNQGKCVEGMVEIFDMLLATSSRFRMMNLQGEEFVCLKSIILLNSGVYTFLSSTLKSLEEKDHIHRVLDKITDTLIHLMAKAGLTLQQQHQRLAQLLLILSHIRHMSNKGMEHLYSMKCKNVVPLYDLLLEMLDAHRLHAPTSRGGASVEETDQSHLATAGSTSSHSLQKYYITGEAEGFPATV
Measured Endpoint: Ki (nM)

1) O=c1c(-c2ccccc2)c(-c2ccccc2)oc2cc(O)cc(O)c12 = 95
2) O=c1c(-c2ccc(O)c(F)c2)coc2cc(O)cc(O)c12 = 74
3) CCc1c(-c2ccc(O)cc2)c(=O)oc2cc(O)ccc12 = 80
4) O=c1c(-c2ccc(O)c(O)c2)coc2cc(O)cc(O)c12 = 605
5) O=c1cc(-c2ccc(O)cc2)oc2ccc(O)cc12 = 88
6) Cc1cc(O)ccc1-c1coc2cc(O)cc(O)c2c1=O = 61
7) O=c1c(-c2ccc(O)cc2)c(C(F)(F)F)oc2cc(O)ccc12 = 321
8) O=c1c(-c2ccc(O)c(Cl)c2)coc2cc(O)cc(O)c12 = 1100
9) Cc1c(-c2ccc(O)cc2)c(=O)oc2c(C)c(O)ccc12 = 500
10) Oc1ccc(C2COc3cc(O)ccc3C2)cc1 (centres unmarked) = 155
11) O=c1oc2cc(O)ccc2cc1-c1ccc(O)cc1 = 220
12) O=c1c(-c2cccc(O)c2)coc2cc(O)cc(O)c12 = 900
13) O=C1c2c(O)cc(O)cc2OCC1c1ccc(O)cc1 (centres unmarked) = 1000

Every entry's value here was drawn from patent US6518301B1.
